Biological target: AKT1 E17K (Homo sapiens, UniProt P31749, E17K)
Sequence (P31749 whole entry E17K): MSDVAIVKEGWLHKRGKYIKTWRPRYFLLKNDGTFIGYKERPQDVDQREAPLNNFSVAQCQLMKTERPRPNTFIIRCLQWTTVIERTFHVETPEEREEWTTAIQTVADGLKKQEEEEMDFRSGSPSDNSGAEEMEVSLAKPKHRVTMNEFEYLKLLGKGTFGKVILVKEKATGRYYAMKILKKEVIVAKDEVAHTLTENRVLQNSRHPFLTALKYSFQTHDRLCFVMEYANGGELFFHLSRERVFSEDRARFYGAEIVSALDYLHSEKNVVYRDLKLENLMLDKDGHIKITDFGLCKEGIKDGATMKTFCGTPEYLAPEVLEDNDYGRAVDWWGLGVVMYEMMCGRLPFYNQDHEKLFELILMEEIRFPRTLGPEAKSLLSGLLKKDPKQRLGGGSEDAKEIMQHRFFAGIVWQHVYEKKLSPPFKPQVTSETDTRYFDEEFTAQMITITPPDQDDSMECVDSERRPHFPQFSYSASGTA
Experiment: Live cell AKT1 E17K target engagement by NanoBRET competitive probe displacement
Conditions: HEK293 cells transfected with kinase-NanoLuciferase fusion, 2 h at 37° C.
value kind: IC50 (nM)
All answers are understood in nM, so give the number only.

**Q:** Query: IC50; subject: C=CC(=O)N1CCC(N[C@H]2CCc3cc(-n4c(-c5cccnc5N)nc5ccc(C6CC6)nc54)ccc32)C(C)C1 (single isomer, unassigned) [Example 232]
**A:** 20.8

**Q:** Query: IC50; subject: C=CC(=O)N1CCC(N[C@H]2CCc3cc(-n4c(-c5cccnc5N)nc5ccc(N6CCOCC6)nc54)ccc32)CC1
**A:** 153

**Q:** Query: IC50; subject: C=CC(=O)N1CCC(N[C@H]2CCc3cc(-n4c(-c5cccnc5N)nc5ccc(-n6cccn6)nc54)ccc32)C[C@H]1C (single isomer, unassigned) [Example 62]
**A:** 8.39

**Q:** Query: IC50; subject: Nc1ncccc1-c1nc2ccc(-n3cccn3)nc2n1-c1ccc2c(c1)CC[C@@H]2NC1CCN(C(=O)C(F)Cl)CC1 (stereo partly drawn)
**A:** 56.5

**Q:** Query: IC50; subject: C=CC(=O)N1CC2(CCC(N[C@H]3CCc4cc(-n5c(-c6cccnc6N)nc6ccc(-n7cccn7)nc65)ccc43)CC2)C1
**A:** 10.1

**Q:** Query: IC50; subject: C=C(F)C(=O)Nc1ccccc1C(=O)N[C@H]1CCc2cc(-n3c(-c4cccnc4N)nc4ccc(-n5nccn5)nc43)ccc21
**A:** 135

====

Molecular target: AKT1 WT (Homo sapiens, UniProt P31749)
Sequence (P31749 whole entry): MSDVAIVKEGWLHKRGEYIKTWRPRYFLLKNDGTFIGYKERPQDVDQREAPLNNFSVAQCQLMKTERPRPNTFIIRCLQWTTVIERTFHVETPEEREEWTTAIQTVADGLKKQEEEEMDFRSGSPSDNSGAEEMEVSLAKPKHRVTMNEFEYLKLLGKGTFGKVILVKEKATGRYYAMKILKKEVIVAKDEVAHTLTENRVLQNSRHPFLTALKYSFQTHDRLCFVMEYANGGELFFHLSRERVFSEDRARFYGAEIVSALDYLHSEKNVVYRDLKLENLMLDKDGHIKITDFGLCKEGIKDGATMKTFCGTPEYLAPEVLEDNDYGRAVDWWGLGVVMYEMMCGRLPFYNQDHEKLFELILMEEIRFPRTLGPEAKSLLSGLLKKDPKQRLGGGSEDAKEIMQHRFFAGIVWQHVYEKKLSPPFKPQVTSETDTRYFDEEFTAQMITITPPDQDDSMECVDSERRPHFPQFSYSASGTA
Test: Live cell AKT1 WT target engagement by NanoBRET competitive probe displacement
Conditions: HEK293 cells transfected with kinase-NanoLuciferase fusion, 2 h at 37° C.
Please provide measured IC50 for the entries that follow.
Write the numeric value and append its unit.

**Q:** Query: IC50; subject: CC#CC(=O)Nc1ccccc1C(=O)N[C@H]1CCc2cc(-n3c(-c4cccnc4N)nc4ccc(-n5cccn5)nc43)ccc21
**A:** 21.9 nM

**Q:** Query: IC50; subject: C=CC(=O)N1CC2(CCC(N[C@H]3CCc4cc(-n5c(-c6cccnc6N)nc6ccc(-n7cccn7)nc65)ccc43)C2)C1 (single isomer, unassigned) [Example 91]
**A:** 36.6 nM

**Q:** Query: IC50; subject: C=CC(=O)N1CCC(N[C@H]2CCc3cc(-n4c(-c5cccnc5N)nc5ccc(-n6cccn6)nc54)ccc32)C(F)(F)C1 (single isomer, unassigned) [Example 55]
**A:** 93.7 nM

**Q:** Query: IC50; subject: C=CC(=O)N1CC2CC[C@H]1CC2N[C@H]1CCc2cc(-n3c(-c4cccnc4N)nc4ccc(-n5cccn5)nc43)ccc21 (single isomer, unassigned) [Example 133]
**A:** 9.71 nM

**Q:** Query: IC50; subject: C=CC(=O)N1CCC(NC2CCc3cc(-n4c(-c5cccnc5N)nc5ccc(C6CC6(F)F)nc54)ccc32)CC1 (single isomer, unassigned) [Example 245]
**A:** 715 nM

**Q:** Query: IC50; subject: C=CC(=O)NC1CCC(N[C@H]2CCc3cc(-n4c(-c5cccnc5N)nc5ccc(-n6cccn6)nc54)ccc32)CC1 (single isomer, unassigned) [Example 48]
**A:** 111 nM

**Q:** Query: IC50; subject: C=CC(=O)N1CCC(N[C@H]2CCc3cc(-n4c(-c5cccnc5N)nc5ccc(-n6cccn6)nc54)ccc32)C(OC)C1 (single isomer, unassigned) [Example 118]
**A:** 21.3 nM

**Q:** Query: IC50; subject: C=CC(=O)N1CCC(N[C@@H]2c3ccc(-n4c(-c5ccccc5F)nc5ccc(-n6cccn6)nc54)cc3CC2F)CC1 (single isomer, unassigned) [Example 300]
**A:** 2330 nM

**Q:** Query: IC50; subject: C=CC(=O)N1CCC(N[C@H]2CC(F)c3cc(-n4c(-c5cccnc5N)nc5ccc(-n6cccn6)nc54)ccc32)CC1 (single isomer, unassigned) [Example 233]
**A:** 59.7 nM

**Q:** Query: IC50; subject: C=CC(=O)N1CCC(N[C@@H]2c3ccc(-n4c(-c5ccccc5)nc5ccc(-n6cccn6)nc54)cc3CC2F)CC1C(F)F (single isomer, unassigned) [Example 329]
**A:** 156 nM

**Q:** Query: IC50; subject: C=CC(=O)N1CCC(N[C@H]2CCc3cc(-n4c(-c5cccnc5N)nc5ccc(-n6cccn6)nc54)ccc32)C(OC)C1 (single isomer, unassigned) [Example 117]
**A:** 41.6 nM

====

Target: AKT1 E17K (Homo sapiens, UniProt P31749, E17K)
Assay: Live cell AKT1 E17K target engagement by NanoBRET competitive probe displacement
Conditions: HEK293 cells transfected with kinase-NanoLuciferase fusion, 2 h at 37° C.
Method: Determining Live Cell AKT1 E17K, AKT1 WT, and AKT2 Target Engagement by NanoBRET Competitive Probe Displacement. Live cell target engagement assays were performed as described (Vasta, J. D. et al. Cell Chem Biol 2018, 25(11), 206-214). […] After incubation for 2 h at 37° C., luciferase substrate and extracellular luciferase inhibitor were added to all wells, and luminescent intensity at 460 nm and 600 nm were measured on a multimode plate-reader. […]
pIC50: −log10 of the molar value.
Please mark 1 if the recorded pIC50 is equal to or greater than 7, and -1 if it falls below.

**Q:** Tell me whether pIC50 is at least 7 here: C=CC(=O)Nc1ccc(F)cc1C(=O)N[C@H]1CCc2cc(-n3c(-c4cccnc4N)nc4ccc(-n5cccn5)nc43)ccc21 [Example 20]
**A:** 1

**Q:** Tell me whether pIC50 is at least 7 here: C=CC(=O)Nc1cc(F)ccc1C(=O)N[C@H]1CCc2cc(-n3c(-c4cccnc4N)nc4ccc(-n5cccn5)nc43)ccc21 [Example 21]
**A:** 1

**Q:** Tell me whether pIC50 is at least 7 here: C=CC(=O)N1CCC(N[C@H]2CCc3cc(-n4c(-c5cccnc5N)nc5ccc(-n6cccn6)nc54)ccc32)C[C@@H]1COC (single isomer, unassigned) [Example 164]
**A:** -1

**Q:** Tell me whether pIC50 is at least 7 here: C=CC(=O)N1CCC(N[C@H]2CCc3cc(-n4c(-c5cccnc5N)nc5ccc(-n6nccn6)nc54)ccc32)CC1 [Example 33]
**A:** 1

**Q:** Tell me whether pIC50 is at least 7 here: C=CC(=O)N1CCC(N[C@H]2CCc3cc(-n4c(-c5cccnc5N)nc5ccc(-c6cc7n(n6)CCOC7)nc54)ccc32)CC1 [Example 121]
**A:** -1

**Q:** Tell me whether pIC50 is at least 7 here: C=CC(=O)N1CCC(N[C@H]2CCc3cc(-n4c(-c5cccnc5N)nc5ccc(-n6ccc(C7CC7)n6)nc54)ccc32)CC1 [Example 208]
**A:** 1

====

Molecular target: AKT1 WT (Homo sapiens, UniProt P31749)
Construct: expressed in transfected cells; host or cells: HEK293
Assay: Live cell AKT1 WT target engagement by NanoBRET competitive probe displacement
Type: cell-based
Conditions: HEK293 cells transfected with kinase-NanoLuciferase fusion, 2 h at 37° C.
value kind: log10(IC50) (log10 of the value in nM)
Annotation: log10 of IC50, nM basis.

**Q:** Query: log10(IC50); subject: C=CC(=O)N1CCC(N[C@H]2CC(F)c3cc(-n4c(-c5cccnc5N)nc5ccc(-n6cccn6)nc54)ccc32)CC1 (single isomer, unassigned) [Example 234]
**A:** 2.50

**Q:** Query: log10(IC50); subject: C=CC(=O)N1CCC(N[C@H]2CCc3cc(-n4c(-c5cccnc5N)nc5ccc(-n6cccn6)nc54)ccc32)C(C)C1 (single isomer, unassigned) [Example 102]
**A:** 0.91

**Q:** Query: log10(IC50); subject: C=CC(=O)N1CCC(N[C@@H]2c3ccc(-n4c(-c5cccnc5N)nc5ccc(-n6cccn6)nc54)cc3CC2(F)F)CC1
**A:** 1.93

**Q:** Query: log10(IC50); subject: C=CC(=O)N1CCC(N[C@H]2CCc3cc(-n4c(-c5cccnc5N)nc5ccc(N6CC7CCC(C6)O7)nc54)ccc32)CC1
**A:** 3.12

**Q:** Query: log10(IC50); subject: C=CC(=O)N1CCC(N[C@H]2CCc3cc(-n4c(-c5cccnc5N)nc5cc(-n6cccn6)cnc54)ccc32)CC1
**A:** 3.27

**Q:** Query: log10(IC50); subject: C=CC(=O)N1CCC(N[C@H]2CCc3cc(-n4c(-c5cccnc5N)nc5ccc(-n6cccn6)nc54)ccc32)C[C@H]1COC (single isomer, unassigned) [Example 129]
**A:** 2.06

**Q:** Query: log10(IC50); subject: C#Cc1cccc(-c2ccc3nc(-c4cccnc4N)n(-c4ccc5c(c4)CC[C@@H]5NC4CCN(C(=O)C=C)CC4)c3n2)c1
**A:** 1.52

**Q:** Query: log10(IC50); subject: CN(CC#N)C(=O)N1CCC(N[C@H]2CCc3cc(-n4c(-c5cccnc5N)nc5ccc(-n6cccn6)nc54)ccc32)CC1
**A:** 1.03

**Q:** Query: log10(IC50); subject: C=CC(=O)N1CCc2ccc(C(=O)N[C@H]3CCc4cc(-n5c(-c6cccnc6N)nc6ccc(-n7cccn7)nc65)ccc43)cc21
**A:** 1.32

**Q:** Query: log10(IC50); subject: C=CC(=O)Nc1cc(F)ccc1C(=O)N[C@H]1CCc2cc(-n3c(-c4cccnc4N)nc4ccc(-n5cccn5)nc43)ccc21
**A:** 1.35

**Q:** Query: log10(IC50); subject: C=CC(=O)N1C[C@H]2COC[C@@H](C1)C2N[C@H]1CCc2cc(-n3c(-c4cccnc4N)nc4ccc(-n5cccn5)nc43)ccc21 (single isomer, unassigned) [Example 73]
**A:** 1.20

**Q:** Query: log10(IC50); subject: C=CC(=O)N1CCC(N[C@H]2CCc3cc(-n4c(-c5cccnc5N)nc5ccc(-n6cccn6)nc54)ccc32)C(C#N)C1 (stereo partly drawn) [Example 157]
**A:** 1.24
